Source listed as PubChem BioAssay (NCI).

Items are presented alongside their recorded growth.
Test system: CAKI-1 renal
Experiment: NCI-60 one-dose screen, 48 h (100 = growth as untreated, 0 = no growth, -100 = all killed)
Details: 10 µM unless noted
The panel holds about 83,000 compounds, 20% with a hit somewhere; the sample as a whole holds those more often. Calls of active or inactive are those of the source. How the source made its calls: active means growth percent below 10; inactive means the rest.

{"columns": ["Smiles code", "Tested target", "growth"],
 "data": [
  ["Oc1[nH]c2ccccc2c1Nn1c(N=N/C=c2/ccc3c(c2)C=NN=3)n[nH]c1=S", "CAKI-1 renal", "82.8% (inactive)"],
  ["COc1cc(OC)c(S(N)(=O)=O)cc1C(=O)/C=C/c1ccc(Cl)cc1", "CAKI-1 renal", "21.5% (inactive)"],
  ["N#Cc1c(-c2cccs2)cc(-c2cnccn2)nc1SCC(=O)c1ccc(F)cc1", "CAKI-1 renal", "59.7% (inactive)"],
  ["CC(C)(C)c1ccc(C(=O)Nc2sc3c(c2C(N)=O)CC/C(=N\\O)C3)cc1", "CAKI-1 renal", "12.7% (inactive)"],
  ["N#Cc1cnc2ccc(-c3cnc4[nH]ncc4c3)cc2c1N1CCc2cc(F)c(Cl)cc21", "CAKI-1 renal", "15.1% (inactive)"]
]}

Field: next compound
Problem: Report growth, nothing else, for this compound: "COc1ccc(-c2nc3cccc(O)c3c(=O)n2Cc2ccccc2)cc1COc1ccc(NC(C)=O)cc1"
Solution: 57% [3 µM] (inactive)

---

Test system: SK-OV-3 ovarian
Experiment: NCI-60 one-dose screen, 48 h
Details: 10 µM unless noted
This is part of a sample that, as a whole, favours compounds with a hit. Of some 83,000 tested, about 20% had one in any assay. Active and inactive are the calls of the source. How the source made its calls: active means growth percent below 10; inactive means the rest.
// classify into T (active), F (inactive)

{"columns": ["Molecule", "Answer label"],
 "data": [
  ["COc1cc2c(cc1OC)C(Sc1ccc(C)cc1)c1c(nc(N)c(C#N)c1N)O2 (centres undefined)", "T"],
  ["CCCCCc1ccc(S(=O)(=O)Nc2cccc(-c3csc(NCCN4CCN(C)CC4)n3)c2)cc1", "F"]
]}

Problem: Assay result, entry "CCCCCc1ccc(S(=O)(=O)Nc2cccc(-c3csc(NC(=O)CCCCCN4CCN(CCO)CC4)n3)c2)cc1" — outcome?
Solution: F

Problem: Entry COc1c(N2CC3CCCNC3C2)c(F)cc2c(=O)c(C(=O)N/N=C/c3ccc4c(c3)OCO4)cn(C3CC3)c12 (centres undefined) : call = ?
Solution: F

Problem: Name the outcome recorded for "Cn1cc(-c2nnc(N)nc2-c2c[nH]c3ccc(F)cc23)c2cc(F)ccc21" in the assay.
Solution: F

Problem: Kindly provide the recorded test outcome for the following molecule: "NS(=O)(=O)c1ccc(Nc2nc(SCc3ccccc3)nc3ccccc23)cc1"
Solution: F

---

Tested on: UACC-62 melanoma
Experiment: NCI-60 one-dose screen, 48 h
Details: 10 µM unless noted
About 83,000 compounds went through this panel and 20% of them were active in at least one assay; those are over-represented in the sample as a whole. Calls of active or inactive are those of the source. How the source made its calls: active means growth percent below 10; inactive means the rest.
Respond with a class label; see TRUE = active, FALSE = inactive

Reference set (5 entries):
{"columns": ["Molecule", "Answer label"],
 "data": [
  ["Nn1c(N/N=C/c2nc3ccccc3s2)n[nH]c1=S", "FALSE"],
  ["CC(=O)N(C)C1CCc2c(sc(NC(=O)c3ccc(C(C)(C)C)cc3)c2C(N)=O)C1 (centres undefined)", "FALSE"],
  ["COc1ccc(-c2nn(-c3ccc(S(C)(=O)=O)cc3)cc2/C=N/O)cc1", "FALSE"],
  ["N=c1c2cc(-c3ccccc3)oc2ncn1/N=C/c1ccc(Cl)cc1", "FALSE"],
  ["Cc1cc(C)n(C(=O)c2sc(=S)n(-c3ccccc3)c2N=Nc2c(N)n[nH]c2N)n1", "FALSE"]
]}

Problem: Test call for this molecule, please: "O=C(c1ccc(O)cc1)[C@@H]1CN[C@@]2(C(=O)Nc3ccccc32)[C@H]1c1ccc(F)cc1"
Solution: FALSE

Problem: Tell me the assay call for "NC(N)=Nc1ccc(Oc2cccc(Nc3ccc(Cl)cc3)c2)cn1" please.
Solution: FALSE

Problem: Any idea what this test logged for "O=C(NNc1nc2cc(F)ccc2n2cccc12)c1ccncn1" ?
Solution: TRUE

Problem: Write down the call the test reported for this molecule. Item: "CCn1c(SCC(=O)Nc2cccc(C(=O)/C=C/c3cc(OC)c(OC)c(OC)c3)c2)nc2ccccc2c1=O"
Solution: FALSE

Problem: Could you check what this test reported for "CC1(C)[C@@H](O)CC[C@]2(C)[C@H]3CC[C@@H]4[C@H]5[C@H](C(=O)/C=C\c6ccccn6)CC[C@]5(O)CC[C@@]4(C)[C@]3(C)CC[C@@H]12" ?
Solution: FALSE
